What inhibition at 48 h, 10 µM was measured for each of the following?
Assay comment: Cytotoxicity against human FR2 cells assessed as growth inhibition at 10 uM measured after 48 hrs by MTT assay relative to control
Type: cell-based
Test parameters: FR2 cells, read-out: GI
Lab book: enter the figure in %, no units written.

Request: Return value of inhibition at 48 h, 10 µM for input "O=C(/C=C/c1ccc(OCc2cn(Cc3cccc(F)c3)nn2)cc1)c1ccc(Br)cc1" , no commentary.
Response: 4

Request: Return value of inhibition at 48 h, 10 µM for input "O=C(/C=C/c1ccc(OCc2cn(Cc3ccccc3)nn2)cc1)c1ccc(Br)cc1" , no commentary.
Response: 7

Request: Return value of inhibition at 48 h, 10 µM for input "C#CCOc1ccc(/C=C/C(=O)c2ccc(OC)cc2)cc1" , no commentary.
Response: 8

Request: Return value of inhibition at 48 h, 10 µM for input "COc1ccc(C(=O)/C=C/c2ccc(OCc3cn(Cc4ccc(Br)cc4)nn3)cc2)cc1" , no commentary.
Response: 2

Request: Return value of inhibition at 48 h, 10 µM for input "O=C(/C=C/c1ccc(OCc2cn(Cc3cccc(Br)c3)nn2)cc1)c1ccc([N+](=O)[O-])cc1" , no commentary.
Response: 4

Request: Return value of inhibition at 48 h, 10 µM for input "O=C(/C=C/c1ccc(OCc2cn(Cc3ccc(Br)cc3)nn2)cc1)c1ccc([N+](=O)[O-])cc1" , no commentary.
Response: 10

Request: Return value of inhibition at 48 h, 10 µM for input "O=C(/C=C/c1ccc(OCc2cn(Cc3cccc(Br)c3)nn2)cc1)c1ccc(Br)cc1" , no commentary.
Response: 9

Request: Return value of inhibition at 48 h, 10 µM for input "O=C(/C=C/c1ccc(OCc2cn(Cc3ccc(F)cc3)nn2)cc1)c1ccc(Br)cc1" , no commentary.
Response: 7

Request: Return value of inhibition at 48 h, 10 µM for input "O=C(/C=C/c1ccc(OCc2cn(Cc3ccc(F)cc3)nn2)cc1)c1ccc([N+](=O)[O-])cc1" , no commentary.
Response: 8

Request: Return value of inhibition at 48 h, 10 µM for input "COc1ccc(C(=O)/C=C/c2ccc(OCc3cn(Cc4ccccc4Br)nn3)cc2)cc1" , no commentary.
Response: 7

Request: Return value of inhibition at 48 h, 10 µM for input "COc1ccc(C(=O)/C=C/c2ccc(OCc3cn(Cc4ccccc4)nn3)cc2)cc1" , no commentary.
Response: 6

Request: Return value of inhibition at 48 h, 10 µM for input "COc1ccc(C(=O)/C=C/c2ccc(OCc3cn(Cc4cccc(F)c4)nn3)cc2)cc1" , no commentary.
Response: 12

Request: Return value of inhibition at 48 h, 10 µM for input "C#CCOc1ccc(/C=C/C(=O)c2ccc([N+](=O)[O-])cc2)cc1" , no commentary.
Response: 2

Request: Return value of inhibition at 48 h, 10 µM for input "O=C(/C=C/c1ccc(OCc2cn(Cc3ccccc3F)nn2)cc1)c1ccc(Br)cc1" , no commentary.
Response: 8

Request: Return value of inhibition at 48 h, 10 µM for input "COc1ccc(C(=O)/C=C/c2ccc(OCc3cn(Cc4ccccc4F)nn3)cc2)cc1" , no commentary.
Response: 11

Request: Return value of inhibition at 48 h, 10 µM for input "O=C(/C=C/c1ccc(OCc2cn(Cc3ccccc3F)nn2)cc1)c1ccc([N+](=O)[O-])cc1" , no commentary.
Response: 12

Request: Return value of inhibition at 48 h, 10 µM for input "O=C(/C=C/c1ccc(OCc2cn(Cc3cccc(F)c3)nn2)cc1)c1ccc([N+](=O)[O-])cc1" , no commentary.
Response: 5

Request: Return value of inhibition at 48 h, 10 µM for input "COc1ccc(C(=O)/C=C/c2ccc(OCc3cn(Cc4cccc(Br)c4)nn3)cc2)cc1" , no commentary.
Response: 3

Request: Return value of inhibition at 48 h, 10 µM for input "O=C(/C=C/c1ccc(OCc2cn(Cc3ccccc3Br)nn2)cc1)c1ccc(Br)cc1" , no commentary.
Response: 11

====

Tested on: A549
Assay comment: Cytotoxicity against human A549 cells measured after 48 hrs by MTT assay
Format: functional, cell-based
Test parameters: A549, 48 h
What pIC50 was measured for each of the following?
// pIC50 is dimensionless: -log10 of concentration (M)

Request: Return value of pIC50 for input "Oc1cccc(-c2nc(N3CCOCC3)c3oc4ncccc4c3n2)c1" , no commentary.
Response: 5.40

Request: Return value of pIC50 for input "COc1ccc(C(=O)/C=C/c2ccc(OCc3cn(Cc4cccc(Br)c4)nn3)cc2)cc1" , no commentary.
Response: 4.82

Request: Return value of pIC50 for input "COc1ccc(C(=O)/C=C/c2ccc(OCc3cn(Cc4ccccc4Br)nn3)cc2)cc1" , no commentary.
Response: 5.00

Request: Return value of pIC50 for input "COc1ccc(C(=O)/C=C/c2ccc(OCc3cn(Cc4ccccc4)nn3)cc2)cc1" , no commentary.
Response: 4.96

Request: Return value of pIC50 for input "COc1ccc(C(=O)/C=C/c2ccc(OCc3cn(Cc4ccc(Br)cc4)nn3)cc2)cc1" , no commentary.
Response: 5.00

Request: Return value of pIC50 for input "COc1ccc(C(=O)/C=C/c2ccc(OCc3cn(Cc4cccc(F)c4)nn3)cc2)cc1" , no commentary.
Response: 5.05

====

System: MIA PaCa-2
Assay comment: Cytotoxicity against human MIAPaCa2 cells assessed as growth inhibition at 10 uM measured after 48 hrs by MTT assay relative to control
Format: functional
Test parameters: MIA PaCa-2, 48 h, read-out: GI
Rule: inhibition of growth at 10 µM under 30% gives no, otherwise yes.

Request: API: above_or_equal(metric=inhibition of growth at 10 µM, cutoff=30%) for item "O=C(/C=C/c1ccc(OCc2cn(Cc3cccc(Br)c3)nn2)cc1)c1ccc([N+](=O)[O-])cc1"
Response: no

Request: API: above_or_equal(metric=inhibition of growth at 10 µM, cutoff=30%) for item "O=C(/C=C/c1ccc(OCc2cn(Cc3ccccc3F)nn2)cc1)c1ccc([N+](=O)[O-])cc1"
Response: no

Request: API: above_or_equal(metric=inhibition of growth at 10 µM, cutoff=30%) for item "COc1ccc(C(=O)/C=C/c2ccc(OCc3cn(Cc4ccc(Br)cc4)nn3)cc2)cc1"
Response: yes

Request: API: above_or_equal(metric=inhibition of growth at 10 µM, cutoff=30%) for item "Oc1cccc(-c2nc(N3CCOCC3)c3oc4ncccc4c3n2)c1"
Response: yes

Request: API: above_or_equal(metric=inhibition of growth at 10 µM, cutoff=30%) for item "C#CCOc1ccc(/C=C/C(=O)c2ccc([N+](=O)[O-])cc2)cc1"
Response: yes

Request: API: above_or_equal(metric=inhibition of growth at 10 µM, cutoff=30%) for item "O=C(/C=C/c1ccc(OCc2cn(Cc3cccc(F)c3)nn2)cc1)c1ccc([N+](=O)[O-])cc1"
Response: yes

Request: API: above_or_equal(metric=inhibition of growth at 10 µM, cutoff=30%) for item "C#CCOc1ccc(/C=C/C(=O)c2ccc(Br)cc2)cc1"
Response: yes

Request: API: above_or_equal(metric=inhibition of growth at 10 µM, cutoff=30%) for item "O=C(/C=C/c1ccc(OCc2cn(Cc3ccc(Br)cc3)nn2)cc1)c1ccc(Br)cc1"
Response: no

Request: API: above_or_equal(metric=inhibition of growth at 10 µM, cutoff=30%) for item "O=C(/C=C/c1ccc(OCc2cn(Cc3ccccc3Br)nn2)cc1)c1ccc(Br)cc1"
Response: yes

Request: API: above_or_equal(metric=inhibition of growth at 10 µM, cutoff=30%) for item "COc1ccc(C(=O)/C=C/c2ccc(OCc3cn(Cc4cccc(F)c4)nn3)cc2)cc1"
Response: yes

Request: API: above_or_equal(metric=inhibition of growth at 10 µM, cutoff=30%) for item "COc1ccc(C(=O)/C=C/c2ccc(OCc3cn(Cc4ccccc4)nn3)cc2)cc1"
Response: yes

Request: API: above_or_equal(metric=inhibition of growth at 10 µM, cutoff=30%) for item "O=C(/C=C/c1ccc(OCc2cn(Cc3ccccc3Br)nn2)cc1)c1ccc([N+](=O)[O-])cc1"
Response: yes

Request: API: above_or_equal(metric=inhibition of growth at 10 µM, cutoff=30%) for item "O=C(/C=C/c1ccc(OCc2cn(Cc3cccc(F)c3)nn2)cc1)c1ccc(Br)cc1"
Response: yes

Request: API: above_or_equal(metric=inhibition of growth at 10 µM, cutoff=30%) for item "C#CCOc1ccc(/C=C/C(=O)c2ccc(OC)cc2)cc1"
Response: yes

Request: API: above_or_equal(metric=inhibition of growth at 10 µM, cutoff=30%) for item "O=C(/C=C/c1ccc(OCc2cn(Cc3ccc(Br)cc3)nn2)cc1)c1ccc([N+](=O)[O-])cc1"
Response: no

Request: API: above_or_equal(metric=inhibition of growth at 10 µM, cutoff=30%) for item "COc1ccc(C(=O)/C=C/c2ccc(OCc3cn(Cc4ccc(F)cc4)nn3)cc2)cc1"
Response: no

Request: API: above_or_equal(metric=inhibition of growth at 10 µM, cutoff=30%) for item "O=C(/C=C/c1ccc(OCc2cn(Cc3cccc(Br)c3)nn2)cc1)c1ccc(Br)cc1"
Response: yes

Request: API: above_or_equal(metric=inhibition of growth at 10 µM, cutoff=30%) for item "COc1ccc(C(=O)/C=C/c2ccc(OCc3cn(Cc4ccccc4Br)nn3)cc2)cc1"
Response: yes

Request: API: above_or_equal(metric=inhibition of growth at 10 µM, cutoff=30%) for item "COc1ccc(C(=O)/C=C/c2ccc(OCc3cn(Cc4ccccc4F)nn3)cc2)cc1"
Response: no
